- System: 7G8
- ASSAY_TEXT: qHTS profiling for inhibitors of Plasmodium falciparum proliferation (AID 504749); note: nearly all actives have a fitted effect of over 60% in size
- RUN_CONDITIONS: P. falciparum in erythrocytes, SYBR Green DNA, 72 h; series mostly up to 28.7 µM
Inconclusive results are not listed. Activity calls are given as the source filed them. Calls come from the whole dose curve; as a rule, active = well fitted inhibition curve with a large enough effect; inconclusive = small, poorly fitted or top-dose-only effect; inactive = flat fitted curve, though single readings scatter.
Outcome codes: active, inactive

[[record]]
compound = "CCCCCCCCCCCCCCCCCCOCC(O)CO (stereo unspecified)"
assigned_category = "inactive"

[[record]]
compound = "COc1ccc2c(c1)C(=O)N(CCc1ccc(S(=O)(=O)NC(=O)NC3CCCCC3)cc1)C(=O)C2(C)C"
assigned_category = "inactive"

[[record]]
compound = "CC(C)(C)C(=O)NCCCC(=O)O"
assigned_category = "inactive"

[[record]]
compound = "CCCCN(CCCC)CC(O)c1cc(Cl)cc2c1-c1ccc(Cl)cc1/C2=C/c1ccc(Cl)cc1 (stereo unspecified)"
assigned_category = "active"

[[record]]
compound = "O=c1[nH]c(=O)c2[nH]c(=O)[nH]c2[nH]1"
assigned_category = "inactive"

[[record]]
compound = "NC(CSCC(=O)O)C(=O)O (stereo unspecified)"
assigned_category = "inactive"


* * *

- Test system: WaGa
- ASSAY_TEXT: qHTS assay to identify novel small-molecules to repurpose for Merkel cell carcinoma treatment (AID 1296009); note: nearly all actives have a fitted effect of over 60% in size
- RUN_CONDITIONS: MCC and control cell lines, CellTiter-Glo viability, 72 h; series mostly up to 46 µM
Results filed as inconclusive are left out. The source made the active and inactive calls. Calls come from the whole dose curve; as a rule, active = well fitted inhibition curve with a large enough effect; inconclusive = small, poorly fitted or top-dose-only effect; inactive = flat fitted curve, though single readings scatter.
Possible outcomes: active, inactive

[[record]]
compound = "O=C(O)[C@H](O)c1ccccc1"
assigned_category = "inactive"

[[record]]
compound = "C=Cc1c(C)c2cc3[nH]c(cc4nc(cc5nc(cc1[nH]2)C(C)=C5CCC(=O)O)C(CCC(=O)O)=C4C)c(C)c3C=C"
assigned_category = "inactive"

[[record]]
compound = "OCC(CO)N[C@H]1C[C@](O)(CO)[C@@H](O)[C@H](O)[C@H]1O"
assigned_category = "inactive"

[[record]]
compound = "Cc1cccc(C)c1NC(=O)CN(CC(=O)O)CC(=O)O"
assigned_category = "inactive"

[[record]]
compound = "O=C1O[C@H](CO)[C@@H](O)[C@H](O)[C@H]1O"
assigned_category = "inactive"

[[record]]
compound = "CCCCOc1cc(C(=O)OCCN(CC)CC)ccc1N"
assigned_category = "inactive"

[[record]]
compound = "COc1ccc2cc1Oc1ccc(cc1)C[C@H]1c3c(cc4c(c3Oc3cc5c(cc3OC)CCN(C)[C@@H]5C2)OCO4)CCN1C"
assigned_category = "active"

[[record]]
compound = "Cc1cc2c(cc1S(N)(=O)=O)S(=O)(=O)CCC2"
assigned_category = "inactive"

[[record]]
compound = "CC(C(O)c1ccc(O)cc1)N1CCC(Cc2ccccc2)CC1 (stereo not given)"
assigned_category = "inactive"

[[record]]
compound = "CC[N+](CC)(CC)CCOc1ccc(/C=C/c2ccccc2)cc1"
assigned_category = "active"


* * *

- Tested on: 3D7
- ASSAY_TEXT: qHTS profiling for inhibitors of Plasmodium falciparum proliferation (AID 504749); note: nearly all actives have a fitted effect of over 60% in size
- RUN_CONDITIONS: P. falciparum in erythrocytes, SYBR Green DNA, 72 h; series mostly up to 28.7 µM
Inconclusive results are not listed. Activity calls are given as the source filed them. The call rests on the fitted dose curve; in most records, active means well fitted inhibition curve with a large enough effect; inconclusive means small, poorly fitted or top-dose-only effect; inactive means flat fitted curve, though single readings scatter.
Labels: active, inactive

[[record]]
compound = "CC(=O)CCC(=O)O"
assigned_category = "inactive"

[[record]]
compound = "CNC(=O)Oc1ccc2c(c1)[C@]1(C)CCN(C)[C@@H]1N2C"
assigned_category = "active"

[[record]]
compound = "Cc1c(Cl)cccc1Nc1ccccc1C(=O)O"
assigned_category = "inactive"

[[record]]
compound = "COC(=O)C1=C(C)NC(C)=C(C(=O)OC)C1c1ccccc1[N+](=O)[O-]"
assigned_category = "inactive"

[[record]]
compound = "O=c1cc[nH]c(=O)[nH]1"
assigned_category = "inactive"

[[record]]
compound = "CC(=O)c1ccc2c(c1)N(CCCN(C)C)c1ccccc1S2"
assigned_category = "inactive"

[[record]]
compound = "CCCn1cnc2c1c(=O)n(CCCCC(C)=O)c(=O)n2C"
assigned_category = "inactive"

[[record]]
compound = "Cc1cc2c(cc1S(N)(=O)=O)S(=O)(=O)CCC2"
assigned_category = "inactive"

[[record]]
compound = "CC(O)CN(CCN(CC(C)O)CC(C)O)CC(C)O (stereo unspecified)"
assigned_category = "inactive"

[[record]]
compound = "Cc1ccc(C(C)C)cc2c(C)ccc1-2"
assigned_category = "inactive"

[[record]]
compound = "COc1ccc(S(=O)(=O)Nc2nnc(CC(C)C)s2)cc1"
assigned_category = "inactive"

[[record]]
compound = "NC(CSCC(=O)O)C(=O)O (stereo unspecified)"
assigned_category = "inactive"

[[record]]
compound = "CCn1cc(C(=O)O)c(=O)c2cnc(N3CCNCC3)nc21"
assigned_category = "inactive"

[[record]]
compound = "O=Cc1ccccc1C=O"
assigned_category = "inactive"

[[record]]
compound = "Nc1ncnc2c1ncn2[C@@H]1O[C@H](CO)[C@@H](O)[C@H]1O"
assigned_category = "inactive"

[[record]]
compound = "OCC(O)CN1CCN(c2ccccc2)CC1 (stereo unspecified)"
assigned_category = "inactive"

[[record]]
compound = "CCOc1nc2cccc(C(=O)O)c2n1Cc1ccc(-c2ccccc2-c2nn[nH]n2)cc1"
assigned_category = "inactive"

[[record]]
compound = "Nc1ccc(S(=O)(=O)Nc2ccc(Cl)nn2)cc1"
assigned_category = "inactive"

[[record]]
compound = "C[C@H]1O[C@@H](n2cc(F)c(=O)[nH]c2=O)[C@H](O)[C@@H]1O"
assigned_category = "inactive"

[[record]]
compound = "Cc1ncc(COP(=O)(O)O)c(C=O)c1O"
assigned_category = "inactive"

[[record]]
compound = "COc1cc(C(=O)N2CCOCC2)cc(OC)c1OC"
assigned_category = "inactive"

[[record]]
compound = "CCN(CC)CCNC(=O)c1cc(Cl)c(N)cc1OC"
assigned_category = "inactive"

[[record]]
compound = "CCCCN(CCCC)CC(O)c1cc(Cl)cc2c1-c1ccc(Cl)cc1/C2=C/c1ccc(Cl)cc1 (stereo unspecified)"
assigned_category = "active"

[[record]]
compound = "CC1(C)OC(=O)NC1=O"
assigned_category = "inactive"

[[record]]
compound = "CNCCC(Oc1ccc(C(F)(F)F)cc1)c1ccccc1 (stereo unspecified)"
assigned_category = "inactive"

[[record]]
compound = "N[C@@H](CSCCCO)C(=O)O"
assigned_category = "inactive"


* * *

Overview of recorded activity, negative = inhibition for various molecules
- ASSAY_TEXT: qHTS profiling for inhibitors of Plasmodium falciparum proliferation (AID 504749); note: nearly all actives have a fitted effect of over 60% in size;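 for activity, negative = inhibition: 0% = DMSO vehicle and full inhibition = artemisinin control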
- RUN_CONDITIONS: P. falciparum in erythrocytes, SYBR Green DNA, 72 h; at 28.7 µM (top of the series); parasite line A
Results filed as inconclusive are left out.
READOUT_KIND: activity, negative = inhibition (%)

[[record]]
molecule = "CCCn1cnc2c1c(=O)n(CCCCC(C)=O)c(=O)n2C"
recorded_number = -5.61

[[record]]
molecule = "NC(=O)NC(=O)Cc1ccccc1"
recorded_number = 2.68

[[record]]
molecule = "NCC(=O)CCC(=O)O"
recorded_number = 2.38

[[record]]
molecule = "Nc1ccc(S(=O)(=O)Nc2nccs2)cc1"
recorded_number = 1.04

[[record]]
molecule = "CCCCC(CC)COC(=O)c1ccccc1O (configuration not stated)"
recorded_number = 5.45

[[record]]
molecule = "CCOC(=O)[C@H](CCc1ccccc1)N[C@@H](C)C(=O)N1C(=O)N(C)C[C@H]1C(=O)O"
recorded_number = 8.56

[[record]]
molecule = "[O-][n+]1cccc(CO)c1"
recorded_number = -0.247

[[record]]
molecule = "O=c1cc[nH]c(=S)[nH]1"
recorded_number = 1.45

[[record]]
molecule = "CC(CN1c2ccccc2Sc2ccccc21)N(C)C (configuration not stated)"
recorded_number = 8.14

[[record]]
molecule = "CCN(CC)CCNC(C(=O)OCCC(C)C)c1ccccc1 (configuration not stated)"
recorded_number = 6.18

[[record]]
molecule = "CC(=O)NC(Cc1ccccc1)C(=O)O (configuration not stated)"
recorded_number = 3.68

[[record]]
molecule = "COC(=O)C1=C(C)NC(C)=C(C(=O)OC)C1c1ccccc1[N+](=O)[O-]"
recorded_number = -7.51

[[record]]
molecule = "CCCCN1CCCC[C@H]1C(=O)Nc1c(C)cccc1C"
recorded_number = 5.7

[[record]]
molecule = "C=Cc1c(C)c2cc3[nH]c(cc4nc(cc5nc(cc1[nH]2)C(C)=C5CCC(=O)O)C(CCC(=O)O)=C4C)c(C)c3C=C"
recorded_number = -6.02

[[record]]
molecule = "NCCNCCNCCN"
recorded_number = 4.28

[[record]]
molecule = "CC(C)(C)C(=O)NCCCC(=O)O"
recorded_number = 13.3

[[record]]
molecule = "CCOC(CN1CCN(CC(C)C(=O)c2ccccc2)CC1)c1ccccc1 (configuration not stated)"
recorded_number = 2.77

[[record]]
molecule = "NC1CCN(c2cccc(Cl)n2)CC1"
recorded_number = 13.3

[[record]]
molecule = "CC12CCC(CC1)C(C)(C)O2"
recorded_number = 9.21

[[record]]
molecule = "CN1CCC[C@@H]1Cc1c[nH]c2ccc(CCS(=O)(=O)c3ccccc3)cc12"
recorded_number = -0.0666

[[record]]
molecule = "CC1(C)OC(=O)NC1=O"
recorded_number = 17.2

[[record]]
molecule = "O=C1OC(OC(=O)c2cccnc2Nc2cccc(C(F)(F)F)c2)c2ccccc21 (configuration not stated)"
recorded_number = -4.18

[[record]]
molecule = "Cc1ncc(COP(=O)(O)O)c(C=O)c1O"
recorded_number = -4.1

[[record]]
molecule = "CC1(C)CO[C@@H](CC(=O)O)CN1"
recorded_number = 1.48

[[record]]
molecule = "CCOC(=O)c1ccc(O)cc1"
recorded_number = 6.51

[[record]]
molecule = "O=C1NC(=O)[C@@]2(CCOc3ccc(F)cc32)N1"
recorded_number = 7.16

[[record]]
molecule = "N[C@@H](CSCCCO)C(=O)O"
recorded_number = -6.32

